system: M14 melanoma; test: NCI tumour cell line growth inhibition, 48 h
READOUT TYPE: GI50

Worked cases, answers included:
- COMPOUND: "O=C(Nc1ccccc1)NS(=O)(=O)c1ccc(-n2nc3c(c2-c2cccs2)Cc2ccccc2-3)cc1"
  TARGET OR SYSTEM: "M14 melanoma"
  MEAS VALUE: "25 µM"
- COMPOUND: "COC1=CC(c2ccc[nH]2)=N/C1=C\\c1[nH]c(C)c(C(=O)OC(C)C)c1C"
  TARGET OR SYSTEM: "M14 melanoma"
  MEAS VALUE: "0.034 µM"
- COMPOUND: "CCCCOC(=O)C1OC(O[C@H]2CCC3(C)C(CCC4(C)C3CC=C3C5CC(C)(C)CCC5(C(=O)O)CC[C@]34C)C2(C)C)C(OC2OC(CO)C(O)C(O)C2O)C(OC2OC(CO)C(O)C(O)C2O)C1O (some centres not stated)"
  TARGET OR SYSTEM: "M14 melanoma"
  MEAS VALUE: "17.8 µM"
- COMPOUND: "O=C(Nc1ccc(Cl)c(Cl)c1)Nc1ccc(Cl)c(Cl)c1"
  TARGET OR SYSTEM: "M14 melanoma"
  MEAS VALUE: "3.1 µM"
- COMPOUND: "O=C(Nc1ccccc1OC(F)(F)F)Nc1n[nH]c2ccccc12"
  TARGET OR SYSTEM: "M14 melanoma"
  MEAS VALUE: "25.5 µM"
- COMPOUND: "CC/C=C\\CCC/C=C1/C(=O)C=C[C@@H]1C/C=C\\CCCC(=O)OC"
  TARGET OR SYSTEM: "M14 melanoma"
  MEAS VALUE: "3.17 µM"

# evaluate next
Request: GI50, test system M14 melanoma, entry Cn1cc(C2=C(c3cn(C)c4ncccc34)C(=O)NC2=O)c2ccccc21
Result: 9.74 µM

----------
system: NCI-H522 lung; test: NCI tumour cell line growth inhibition, 48 h; in the data active = GI50 below about 0.43 µM; inactive = the rest
Output constraint: value belongs to active, inactive

Some entries whose results are on file:
- COMPOUND: "Cn1cc(C2=C(c3cn(C)c4ncccc34)C(=O)NC2=O)c2ccccc21"
  CLASS NAME: "inactive"
- COMPOUND: "CO[C@H](C(=O)[C@@H](O)[C@@H](C)O)[C@@H]1Cc2cc3cc(O[C@H]4C[C@@H](O[C@H]5C[C@@H](O)[C@H](O)C(C)O5)[C@H](O)C(C)O4)c(C)c(O)c3c(O)c2C(=O)[C@H]1O[C@H]1C[C@@H](O[C@H]2C[C@@H](O[C@H]3C[C@](C)(O)C(=O)C(C)O3)[C@@H](O)C(C)O2)[C@H](O)C(C)O1 (some centres not stated)"
  CLASS NAME: "active"
- COMPOUND: "COc1cc(Cc2cnc(/N=C3\\C(=O)N(CN4CCN(c5c(F)cc6c(=O)c(C(=O)O)cn(C7CC7)c6c5OC)CC4C)c4ccc(F)cc43)nc2N)cc(OC)c1OC (configuration not stated)"
  CLASS NAME: "inactive"
- COMPOUND: "C=C(CN1CCN(c2ccc(Cl)cc2F)CC1)c1ccc(C(=O)Nc2ccccc2N)cc1"
  CLASS NAME: "inactive"
- COMPOUND: "COc1cc(CNc2cnc3cc(N)cc(N)c3n2)cc(OC)c1"
  CLASS NAME: "inactive"
- COMPOUND: "COc1ccc2c(c1)/C(=C/c1c(C)nc3sc(C)nn13)C(=O)N2"
  CLASS NAME: "inactive"

Request: Answer briefly: the call reported for OCc1ccc(N2CCC2c2ccc(F)cc2)cc1Cl (configuration not stated) in this assay.
Result: inactive
